Values compiled from the supplement of paper PMC11061612.

Tested on: ES1 (Ewing's Sarcoma);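 also: after 72 h of two-drug dosing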
Assay: Bliss excess, mean over the matrix (fraction); higher = more synergy
Parameter Bliss excess: see the listing below.
Output: the number by itself.

Some solved cases for reference:
# compound, targetOrTestSystem, Bliss excess
rows = [
    ("CC1(C)CCC(CN2CCN(c3ccc(C(=O)NS(=O)(=O)c4ccc(NCC5CCOCC5)c([N+](=O)[O-])c4)c(Oc4cnc5[nH]ccc5c4)c3)CC2)=C(c2ccc(Cl)cc2)C1 [Venetoclax] + Cc1cc2ncnn2cc1Nc1ncc2c(n1)n(C1CCOCC1)c(=O)n2C [AZD7648] (first compound max 1 µM, 7x7, partner max 10 µM)", "ES1 (Ewing's Sarcoma)", 0.0149),
    ("NC1(C(=O)N[C@@H](CCO)c2ccc(Cl)cc2)CCN(c2ncnc3[nH]ccc23)CC1 [Capivasertib] + CCN(CCO)CCCOc1ccc2c(Nc3cc(CC(=O)Nc4cccc(F)c4)[nH]n3)ncnc2c1 [AZD2811] (first compound max 10 µM, 7x7, partner max 1 µM)", "ES1 (Ewing's Sarcoma)", -0.0207),
    ("CCN(CCO)CCCOc1ccc2c(Nc3cc(CC(=O)Nc4cccc(F)c4)[nH]n3)ncnc2c1 [AZD2811] + C=CCn1c(=O)c2cnc(Nc3ccc(N4CCN(C)CC4)cc3)nc2n1-c1cccc(C(C)(C)O)n1 [AZD1775] (first compound max 1 µM, partner max 1 µM)", "ES1 (Ewing's Sarcoma)", 0.16),
    ("Cc1c2c(nn1C)CSCc1cc(n(C)n1)CSc1cc(c3ccccc3c1)OCCCc1c(C(=O)O)n(C)c3c-2c(Cl)ccc13 [AZD5991] + CS(=O)(=O)CCNCc1ccc(-c2ccc3ncnc(Nc4ccc(OCc5cccc(F)c5)c(Cl)c4)c3c2)o1 [Lapatinib] (first compound max 1 µM, 7x7, partner max 10 µM)", "ES1 (Ewing's Sarcoma)", -0.0151),
]

input: Give Bliss excess for C[C@@H]1COCCN1c1cc(C2([S@](C)(=N)=O)CC2)nc(-c2ccnc3[nH]ccc23)n1 [AZD6738] + C1CC(C1)(C(=O)[O-])C(=O)[O-].N.N.[Pt+2] [Carboplatin] (first compound max 10 µM, 7x7, partner max 10 µM)
output: -0.0078

input: Give Bliss excess for CN(CCO)CC[C@H](CSc1ccccc1)Nc1ccc(S(=O)(=O)NC(=O)c2ccc(N3CCC([C@@H](O)c4ccccc4-c4ccc(Cl)cc4)CC3)cc2)cc1S(=O)(=O)C(F)(F)F [AZD4320] + C=CCn1c(=O)c2cnc(Nc3ccc(N4CCN(C)CC4)cc3)nc2n1-c1cccc(C(C)(C)O)n1 [AZD1775] (first compound max 1 µM, partner max 1 µM)
output: 0.0958

---

Tested on: MOLT-16 (T-Lymphoblastic Leukemia)
Assay: combination Emax (second highest fraction inhibited in the dose matrix, 72 h); higher = more inhibition; extreme values may be limits of the assay
quantityKind: combination Emax
Output: the number by itself.

# compound, quantityKind, measurement
data = [
    ("CC(=O)Nc1cccc(-n2c(=O)n(C3CC3)c(=O)c3c(Nc4ccc(I)cc4F)n(C)c(=O)c(C)c32)c1 [Trametinib] + Cc1nc(-c2cn3c(n2)-c2ccc(-c4cnn(C(C)(C)C(N)=O)c4)cc2OCC3)n(C(C)C)n1 [Taselisib] (first compound max 1 µM, 7x7, partner max 10 µM)", "combination Emax", 0.776),
]

input: Give combination Emax for Cc1c2c(nn1C)CSCc1cc(n(C)n1)CSc1cc(c3ccccc3c1)OCCCc1c(C(=O)O)n(C)c3c-2c(Cl)ccc13 [AZD5991] + CN(C)CCCOc1ccc(-c2ccc3ncc4c(c3c2)n(C2CCOCC2)c(=O)n4C)cn1 [AZD0156] (first compound max 1 µM, 7x7, partner max 1 µM)
output: 1
